target: mNaV1.6 (Mus musculus, UniProt Q9WTU3); assay: Two-electrode voltage-clamp on Xenopus laevis oocytes expressing NaV1.6; details: read-out: Maximum % inhibition NaV1.6, peptide at 100 μM
Sequence (Q9WTU3 whole entry): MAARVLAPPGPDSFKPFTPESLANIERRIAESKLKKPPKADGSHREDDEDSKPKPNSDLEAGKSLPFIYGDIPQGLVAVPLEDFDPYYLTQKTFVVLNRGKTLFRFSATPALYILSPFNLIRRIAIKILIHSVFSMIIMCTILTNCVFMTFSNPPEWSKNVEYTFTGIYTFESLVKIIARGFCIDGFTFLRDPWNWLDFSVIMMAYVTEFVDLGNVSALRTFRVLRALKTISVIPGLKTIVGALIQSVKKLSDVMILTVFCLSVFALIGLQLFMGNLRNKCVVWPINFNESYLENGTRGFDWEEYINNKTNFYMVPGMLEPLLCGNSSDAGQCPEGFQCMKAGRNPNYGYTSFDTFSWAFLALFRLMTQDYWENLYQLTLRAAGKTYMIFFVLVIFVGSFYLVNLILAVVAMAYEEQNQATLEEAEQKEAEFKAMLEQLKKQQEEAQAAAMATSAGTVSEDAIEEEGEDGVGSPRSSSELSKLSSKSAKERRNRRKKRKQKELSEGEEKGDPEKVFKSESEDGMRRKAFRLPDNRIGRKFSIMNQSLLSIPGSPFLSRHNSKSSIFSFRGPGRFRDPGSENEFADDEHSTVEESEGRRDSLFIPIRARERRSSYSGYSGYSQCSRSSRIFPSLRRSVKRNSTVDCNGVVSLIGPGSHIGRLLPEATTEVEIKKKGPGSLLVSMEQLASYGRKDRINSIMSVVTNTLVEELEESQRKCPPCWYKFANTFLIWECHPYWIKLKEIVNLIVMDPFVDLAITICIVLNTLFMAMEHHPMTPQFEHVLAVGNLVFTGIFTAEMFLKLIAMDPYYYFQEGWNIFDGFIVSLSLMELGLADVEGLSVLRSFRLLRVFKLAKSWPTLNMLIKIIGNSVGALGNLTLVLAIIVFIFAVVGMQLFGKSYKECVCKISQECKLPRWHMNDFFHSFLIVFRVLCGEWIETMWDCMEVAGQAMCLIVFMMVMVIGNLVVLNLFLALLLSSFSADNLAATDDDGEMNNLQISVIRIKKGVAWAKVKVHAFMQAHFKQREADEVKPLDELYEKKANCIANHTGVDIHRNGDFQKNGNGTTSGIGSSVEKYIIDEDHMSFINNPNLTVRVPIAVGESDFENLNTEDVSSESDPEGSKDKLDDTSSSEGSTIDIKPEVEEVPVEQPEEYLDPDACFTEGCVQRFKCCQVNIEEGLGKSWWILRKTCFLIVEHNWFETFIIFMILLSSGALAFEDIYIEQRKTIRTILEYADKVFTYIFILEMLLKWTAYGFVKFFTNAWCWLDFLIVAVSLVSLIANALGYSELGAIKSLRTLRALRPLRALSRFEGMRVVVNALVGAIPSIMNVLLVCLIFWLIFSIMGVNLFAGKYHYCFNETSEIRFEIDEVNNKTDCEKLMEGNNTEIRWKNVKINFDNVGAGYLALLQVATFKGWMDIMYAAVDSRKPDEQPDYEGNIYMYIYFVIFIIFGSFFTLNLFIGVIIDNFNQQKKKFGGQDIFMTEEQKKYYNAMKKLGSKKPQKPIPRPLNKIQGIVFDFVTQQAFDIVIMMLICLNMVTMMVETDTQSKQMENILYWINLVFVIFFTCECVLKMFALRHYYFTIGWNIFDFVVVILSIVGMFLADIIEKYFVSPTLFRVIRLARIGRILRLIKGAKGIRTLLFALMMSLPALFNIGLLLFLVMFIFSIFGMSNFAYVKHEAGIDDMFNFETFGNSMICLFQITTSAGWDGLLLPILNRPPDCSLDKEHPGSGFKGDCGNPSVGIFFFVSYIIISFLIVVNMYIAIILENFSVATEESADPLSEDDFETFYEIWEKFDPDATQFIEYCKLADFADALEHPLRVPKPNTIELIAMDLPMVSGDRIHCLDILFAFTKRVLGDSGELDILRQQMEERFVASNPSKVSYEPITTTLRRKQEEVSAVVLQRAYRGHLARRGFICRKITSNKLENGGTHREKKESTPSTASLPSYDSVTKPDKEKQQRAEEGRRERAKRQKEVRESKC
Where a SMILES comes first, the peptide text is derived from it. Bridges are numbered along the chain shown (N, C = ends).

{"columns": ["compound", "inhibition at 100 µM"],
 "data": [
  ["C[C@@H]1NC(=O)[C@H](CCCNC(=N)N)NC(=O)[C@H](C)NC(=O)[C@H](Cc2c[nH]c3ccccc23)NC(=O)[C@H](CCCNC(=N)N)NC(=O)[C@H](CCCNC(=N)N)NC(=O)[C@@H](N)CSSC[C@@H](C(N)=O)NC(=O)[C@H](CCCNC(=N)N)NC(=O)[C@H](CC(N)=O)NC1=O [PnCS1[W7A], CRRWARANRC ^*] (H-CRRWARANRC-NH2; disulfide 1-10)", "57%"],
  ["C[C@@H]1NC(=O)[C@H](Cc2c[nH]c3ccccc23)NC(=O)[C@H](C)NC(=O)[C@H](CCCNC(=N)N)NC(=O)[C@@H](N)CSSC[C@@H](C(N)=O)NC(=O)[C@H](CCCNC(=N)N)NC(=O)[C@H](CC(N)=O)NC(=O)[C@H](Cc2c[nH]c3ccccc23)NC(=O)[C@H](CCCNC(=N)N)NC1=O [PnCS1[R3A], CRAWARWNRC ^*] (H-CRAWARWNRC-NH2; disulfide 1-10)", "87%"],
  ["N=C(N)NCCC[C@@H]1NC(=O)[C@H](CC(N)=O)NC(=O)[C@H](Cc2c[nH]c3ccccc23)NC(=O)[C@H](CCCNC(=N)N)NC(=O)[C@H](CCC(=O)O)NC(=O)[C@H](Cc2c[nH]c3ccccc23)NC(=O)[C@H](CCCNC(=N)N)NC(=O)[C@H](CCCNC(=N)N)NC(=O)[C@@H](N)CSSC[C@@H](C(N)=O)NC1=O [PnCS1[A5E], CRRWERWNRC ^*] (H-CRRWERWNRC-NH2; disulfide 1-10)", "82%"]
]}

* * *

target: hNaV1.1 (Homo sapiens)
Where a SMILES comes first, the peptide text is derived from it. Bridges are numbered along the chain shown (N, C = ends).

{"columns": ["compound", "systemUnderTest", "IC50, nM"],
 "data": [
  ["C[C@@H]1NC(=O)[C@H](Cc2c[nH]c3ccccc23)NC(=O)[C@H](CCCNC(=N)N)NC(=O)[C@H](CCCNC(=N)N)NC(=O)[C@@H](N)CSSC[C@@H](C(N)=O)NC(=O)[C@H](CCCNC(=N)N)NC(=O)[C@H](CC(N)=O)NC(=O)[C@H](Cc2c[nH]c3ccccc23)NC(=O)[C@H](CCCNC(=N)N)NC1=O [PnCS1, CRRWARWNRC ^*] (H-CRRWARWNRC-NH2; disulfide 1-10)", "hNaV1.1 (Homo sapiens)", 800]
]}

* * *

molecular target: rNaV1.4 (Rattus norvegicus, UniProt P15390); test: Two-electrode voltage-clamp on Xenopus laevis oocytes expressing NaV1.4; conditions: read-out: Maximum % inhibition NaV1.4, peptide at 100 μM
Sequence (P15390 whole entry): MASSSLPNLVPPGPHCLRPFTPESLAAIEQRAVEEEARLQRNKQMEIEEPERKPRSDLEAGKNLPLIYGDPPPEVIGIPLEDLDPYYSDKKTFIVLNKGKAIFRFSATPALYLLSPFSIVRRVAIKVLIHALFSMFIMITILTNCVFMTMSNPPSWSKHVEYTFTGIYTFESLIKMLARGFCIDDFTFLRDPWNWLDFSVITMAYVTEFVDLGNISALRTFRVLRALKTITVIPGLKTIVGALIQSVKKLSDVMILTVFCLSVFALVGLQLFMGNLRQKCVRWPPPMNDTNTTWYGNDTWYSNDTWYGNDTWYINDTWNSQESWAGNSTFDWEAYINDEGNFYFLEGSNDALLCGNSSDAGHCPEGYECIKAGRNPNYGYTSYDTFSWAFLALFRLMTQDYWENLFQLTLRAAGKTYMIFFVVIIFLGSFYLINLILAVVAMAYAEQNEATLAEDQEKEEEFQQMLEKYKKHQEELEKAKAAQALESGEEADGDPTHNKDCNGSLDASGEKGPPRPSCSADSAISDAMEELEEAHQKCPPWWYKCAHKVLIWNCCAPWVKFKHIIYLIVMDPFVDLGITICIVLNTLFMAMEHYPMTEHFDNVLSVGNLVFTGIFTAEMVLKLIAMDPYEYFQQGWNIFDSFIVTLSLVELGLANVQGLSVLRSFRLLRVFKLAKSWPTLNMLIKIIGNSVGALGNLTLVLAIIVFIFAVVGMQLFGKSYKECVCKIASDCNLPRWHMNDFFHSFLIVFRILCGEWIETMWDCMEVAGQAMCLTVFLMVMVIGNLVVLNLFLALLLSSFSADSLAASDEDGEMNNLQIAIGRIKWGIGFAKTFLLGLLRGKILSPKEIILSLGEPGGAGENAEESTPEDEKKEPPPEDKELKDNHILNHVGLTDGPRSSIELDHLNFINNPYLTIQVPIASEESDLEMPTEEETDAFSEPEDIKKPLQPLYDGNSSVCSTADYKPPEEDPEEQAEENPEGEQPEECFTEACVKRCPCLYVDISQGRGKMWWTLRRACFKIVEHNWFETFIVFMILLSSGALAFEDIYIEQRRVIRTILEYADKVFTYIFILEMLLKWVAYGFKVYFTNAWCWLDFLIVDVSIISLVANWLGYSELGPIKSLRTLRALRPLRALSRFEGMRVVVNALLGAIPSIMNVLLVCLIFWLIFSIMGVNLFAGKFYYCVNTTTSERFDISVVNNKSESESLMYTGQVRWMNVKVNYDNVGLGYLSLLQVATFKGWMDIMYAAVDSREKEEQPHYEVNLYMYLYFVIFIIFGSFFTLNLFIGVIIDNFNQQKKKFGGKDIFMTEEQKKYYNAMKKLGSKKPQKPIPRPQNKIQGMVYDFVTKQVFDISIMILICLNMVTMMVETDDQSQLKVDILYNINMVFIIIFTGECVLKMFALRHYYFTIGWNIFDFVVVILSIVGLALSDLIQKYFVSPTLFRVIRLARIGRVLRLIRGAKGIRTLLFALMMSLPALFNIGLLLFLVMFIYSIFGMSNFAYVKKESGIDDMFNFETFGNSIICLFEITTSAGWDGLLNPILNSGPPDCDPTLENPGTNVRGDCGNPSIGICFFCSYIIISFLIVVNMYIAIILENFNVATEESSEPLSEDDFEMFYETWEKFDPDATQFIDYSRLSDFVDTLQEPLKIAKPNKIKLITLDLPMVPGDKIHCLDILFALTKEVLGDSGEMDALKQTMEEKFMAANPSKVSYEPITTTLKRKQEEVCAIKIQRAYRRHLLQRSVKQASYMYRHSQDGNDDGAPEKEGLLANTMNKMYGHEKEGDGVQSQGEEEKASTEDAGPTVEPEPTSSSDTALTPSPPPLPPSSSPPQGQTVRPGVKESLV
Sequence (Q00954 19-218, further chain): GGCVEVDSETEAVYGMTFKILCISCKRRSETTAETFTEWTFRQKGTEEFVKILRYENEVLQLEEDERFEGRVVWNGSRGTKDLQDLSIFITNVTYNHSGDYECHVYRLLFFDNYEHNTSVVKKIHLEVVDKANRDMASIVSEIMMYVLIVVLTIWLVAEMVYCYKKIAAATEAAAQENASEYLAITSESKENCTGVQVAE
Where a SMILES comes first, the peptide text is derived from it. Bridges are numbered along the chain shown (N, C = ends).

{"columns": ["compound", "inhibition at 100 µM"],
 "data": [
  ["C[C@@H]1NC(=O)[C@H](CCC(=O)O)NC(=O)[C@H](CCCNC(=N)N)NC(=O)[C@H](CCCNC(=N)N)NC(=O)[C@@H](N)CSSC[C@@H](C(N)=O)NC(=O)[C@H](CCCNC(=N)N)NC(=O)[C@H](CC(N)=O)NC(=O)[C@H](Cc2c[nH]c3ccccc23)NC(=O)[C@H](CCCNC(=N)N)NC1=O [PnCS1[W4E], CRREARWNRC ^*] (H-CRREARWNRC-NH2; disulfide 1-10)", "59%"],
  ["CC(=O)N[C@H]1CSSC[C@@H](C(=O)O)NC(=O)[C@H](CCCNC(=N)N)NC(=O)[C@H](CC(N)=O)NC(=O)[C@H](Cc2c[nH]c3ccccc23)NC(=O)[C@H](CCCNC(=N)N)NC(=O)[C@H](C)NC(=O)[C@H](Cc2c[nH]c3ccccc23)NC(=O)[C@H](CCCNC(=N)N)NC(=O)[C@H](CCCNC(=N)N)NC1=O [PnCS1Ac, Ac-CRRWARWNRC] (Ac-CRRWARWNRC-OH; disulfide 1-10)", "0%"],
  ["C[C@@H]1NC(=O)[C@H](Cc2c[nH]c3ccccc23)NC(=O)[C@H](CCCNC(=N)N)NC(=O)[C@H](CCCNC(=N)N)NC(=O)[C@@H](N)CSSC[C@@H](C(N)=O)NC(=O)[C@H](CCCNC(=N)N)NC(=O)[C@H](CC(N)=O)NC(=O)[C@H](Cc2c[nH]c3ccccc23)NC(=O)[C@H](CCCCN)NC1=O [PnCS1[R6K], CRRWAKWNRC ^*] (H-CRRWAKWNRC-NH2; disulfide 1-10)", "94%"],
  ["C[C@@H]1NC(=O)[C@H](Cc2c[nH]c3ccccc23)NC(=O)[C@H](CCCNC(=N)N)NC(=O)[C@H](CCCNC(=N)N)NC(=O)[C@@H](N)CSSC[C@@H](C(N)=O)NC(=O)[C@H](CCCNC(=N)N)NC(=O)[C@H](CC(N)=O)NC(=O)[C@H](CCCCN)NC(=O)[C@H](CCCNC(=N)N)NC1=O [PnCS1[W7K], CRRWARKNRC ^*] (H-CRRWARKNRC-NH2; disulfide 1-10)", "87%"],
  ["C[C@@H]1NC(=O)[C@H](Cc2c[nH]c3ccccc23)NC(=O)[C@H](CCCNC(=N)N)NC(=O)[C@H](CCCNC(=N)N)NC(=O)[C@@H](N)CSSC[C@@H](C(N)=O)NC(=O)[C@H](CCC(=O)O)NC(=O)[C@H](CC(N)=O)NC(=O)[C@H](Cc2c[nH]c3ccccc23)NC(=O)[C@H](CCCNC(=N)N)NC1=O [PnCS1[R9E], CRRWARWNEC ^*] (H-CRRWARWNEC-NH2; disulfide 1-10)", "0%"]
]}
